Molecular target: HIV-1 protease Mutant 9 (Human immunodeficiency virus type 1, UniProt P04585)
Experiment: Ki against HIV-1 protease Mutant 9
Format: biochemical
Conditions: Mutant 9
Measured Ki accompanies every entry in the list below.
State the answer as a number, implicitly in nM.

1) CCOC(=O)NCc1cc2cc(S(=O)(=O)N(CC(C)C)CC(O)C(Cc3ccccc3)NC(=O)OC3COC4OCCC34)ccc2o1 (stereo not shown) [Compound 121] | 1.6

Shift focus to the following entry.
query: // lookup Ki for CC(C)CN(CC(O)C(Cc1ccccc1)NC(=O)OC1COC2OCCC12)S(=O)(=O)c1ccc2[nH]nc(NCC(C)(C)C)c2c1 (stereo not shown) [Compound 309]
result: 3.5

* * *

Molecular target: HIV-1 protease Mutant 8 (Human immunodeficiency virus type 1)
Assay: Ki against HIV-1 protease Mutant 8
Type: biochemical
Conditions: Mutant 8
Assay Endpoint: Ki

Example entries and their recorded answers appear below.
1. CC(C)CN(CC(O)C(Cc1ccccc1)NC(=O)OC1COC2OCCC12)S(=O)(=O)c1ccc2occ(CO)c2c1 (stereo not drawn) | < 0.3 nM
2. CCCC[S+]([O-])Cc1coc2ccc(S(=O)(=O)N(CC(C)C)C[C@@H](O)[C@H](Cc3ccccc3)NC(=O)OC3COC4OCCC34)cc12 (stereo partly drawn) | < 0.3 nM

query: // lookup Ki for CC(C)CN(CC(O)C(Cc1ccccc1)NC(=O)OC1COC2OCCC12)S(=O)(=O)c1ccc2occ(CNC(=O)c3ccccc3)c2c1 (stereo not drawn)
result: < 0.3 nM

query: // lookup Ki for CC(C)CN(C[C@@H](O)[C@H](Cc1ccccc1)NC(=O)OC1COC2OCCC12)S(=O)(=O)c1ccc2c(c1)C(=O)CCO2 (stereo partly drawn)
result: 0.42 nM

query: // lookup Ki for CC(C)CN(C[C@@H](O)[C@H](Cc1ccccc1)NC(=O)OC1COC2OCCC12)S(=O)(=O)c1ccc2occ(CN3CCOCC3)c2c1 (stereo partly drawn)
result: < 0.3 nM

query: // lookup Ki for CC(C)CN(C[C@@H](O)[C@H](Cc1ccccc1)NC(=O)OC1COC2OCCC12)S(=O)(=O)c1ccc2oc(CBr)cc2c1 (stereo partly drawn)
result: < 0.3 nM

* * *

System: HIV-1 isolates, WT
Experiment: In vitro drug sensitivity of HIV-1 laboratory isolates, WT
Type: cell-based
Conditions: WT
Assay Endpoint: pIC50
Quick note: pIC50 values are minus log10 of concentrations in mol/L.

Example entries and their recorded answers appear below.
1. CC(C)CN(C[C@@H](O)[C@H](Cc1ccccc1)NC(=O)OC1COC2OCCC12)S(=O)(=O)c1ccc2occ(CN3CCCCC3)c2c1 (stereo partly shown) | 8.70
2. CC(C)CN(C[C@@H](O)[C@H](Cc1ccccc1)NC(=O)OC1COC2OCCC12)S(=O)(=O)c1ccc2occ(CNCCc3ccccn3)c2c1 (stereo partly shown) | 8.15

query: // lookup pIC50 for CC(C)CN(C[C@@H](O)[C@H](Cc1ccccc1)NC(=O)OC1COC2OCCC12)S(=O)(=O)c1ccc2oc(CBr)cc2c1 (stereo partly shown)
result: 8.10

query: // lookup pIC50 for CCC(=O)NCc1coc2ccc(S(=O)(=O)N(CC(C)C)C[C@@H](O)[C@H](Cc3ccccc3)NC(=O)OC3COC4OCCC34)cc12 (stereo partly shown)
result: 8.15

query: // lookup pIC50 for CC(C)CN(C[C@@H](O)[C@H](Cc1ccccc1)NC(=O)OC1COC2OCCC12)S(=O)(=O)c1ccc2occ(CNC(=O)c3ccco3)c2c1 (stereo partly shown)
result: 8.30

query: // lookup pIC50 for CCOC(=O)N(CCOC)Cc1coc2ccc(S(=O)(=O)N(CC(C)C)C[C@@H](O)[C@H](Cc3ccccc3)NC(=O)OC3COC4OCCC34)cc12 (stereo partly shown)
result: 8.40

query: // lookup pIC50 for CC(C)CN(C[C@@H](O)[C@H](Cc1ccccc1)NC(=O)OC1COC2OCCC12)S(=O)(=O)c1ccc2occ(CNC(=O)CNC(=O)OCc3ccccc3)c2c1 (stereo partly shown)
result: 7.82

Just for reference, patent US20100056596A1 is where these values come from.
